All values here come from patent US20120022040A1.

system: MRSA 43300; test: MIC90 determination by serial dilution; format: cell-based, methicillin-resistant Staphylococcus aureus; conditions: Staphylococcus aureus, dilution series from the Max Conc.
Endpoint: MIC90 (µg/mL)

Compound: CCC(C)(C)C(=O)C(=O)N1CCCC[C@H]1C(=O)O[C@H](CCc1ccc(OC)c(OC)c1)c1cccc(OCCNC(=O)c2cccc(NC(=O)[C@@H]3C[C@H](SC4=C(C(=O)O)N5C(=O)[C@H]([C@@H](C)O)[C@H]5[C@H]4C)CN3)c2)c1
MIC90 / µg/mL: 8

1. C[C@@H](O)[C@H]1C(=O)N2C(C(=O)O)=C(S[C@@H]3CN[C@H](C(=O)N(C)C)C3)[C@H](C)[C@H]12 [Meropenem, meropenem, reference compound]
2. O=C1CN(/N=C/c2ccc([N+](=O)[O-])o2)C(=O)N1
Query block: Which record would sort first by descending MIC90, 1 or 2 ? Selection: enter the item's label.
Result block: 2

I. O=C(N[C@H](CO)[C@H](O)c1ccc([N+](=O)[O-])cc1)C(Cl)Cl
II. CCC(C)(C)C(=O)C(=O)N1CCCC[C@H]1C(=O)O[C@H](CCc1ccc(OC)c(OC)c1)c1cccc(OCC(=O)NCCCCCN2C[C@@H](SC3=C(C(=O)O)N4C(=O)[C@H]([C@@H](C)O)[C@H]4[C@H]3C)C[C@H]2C(=O)N(C)C)c1
Query block: Looking at recorded values for MIC90, does I or II come in lower? Selection: enter the item's label.
Result block: I
